system: UACC-257 melanoma; assay: NCI tumour cell line growth inhibition, 48 h
Label TRUE when TGI is at or above 30 µM; anything below gets FALSE.

>  <Compound>
COC1CC(CC2CCC(C)C(C(C)C(=O)O)O2)OC2(OC(C)(C3CCC(C)(C4OC(C5OC(O)(CO)C(C)CC5C)CC4C)O3)CC2C)C1C (centres undefined)

>  <Classification>
FALSE

$$$$
>  <Compound>
COC(=O)C1=C(O)CCCC(CCC(C)=O)=C1

>  <Classification>
TRUE

$$$$
>  <Compound>
C[C@@H](Oc1ccc2[nH]nc(/C=C/c3cnn(CCO)c3)c2c1)c1c(Cl)cncc1Cl

>  <Classification>
FALSE

$$$$
>  <Compound>
OCC#Cc1ccccc1C#Cc1ccc(C#Cc2ccccc2C#CCO)s1

>  <Classification>
TRUE

$$$$
>  <Compound>
CC(C)(Oc1ccc2c(=O)cc(-c3ccccc3)oc2c1)C(=O)Nc1c(Cl)cccc1Cl

>  <Classification>
TRUE

$$$$
>  <Compound>
CCCCCCCCCCCC(O)=C1C(=O)CC(O)CC1=O (centres undefined)

>  <Classification>
TRUE

$$$$
>  <Compound>
CO[C@@]12C[C@H]3[C@@H]([C@@H](O)[C@@H](OC(=O)/C=C/c4ccccc4)[C@@]4(O)C(C)(C)CCC[C@]34C)[C@@H](C)C1=CC(=O)O2

>  <Classification>
TRUE

$$$$
>  <Compound>
CCCCCCNc1nc(N2CCOCC2)c2[nH]c(NCCCCCC)nc2n1

>  <Classification>
FALSE

$$$$
>  <Compound>
O=C(O)C(O)C(O)C(O)C(=O)CO (centres undefined)

>  <Classification>
TRUE

$$$$
>  <Compound>
CC(C(=O)c1ccc(Cl)cc1)C1OC(=O)C(Cl)=C1Cl (centres undefined)

>  <Classification>
TRUE

$$$$
>  <Compound>
N#Cc1c(N)nc2c(c1-c1ccc(Br)cc1)CSc1ccccc1-2

>  <Classification>
TRUE

$$$$
>  <Compound>
CCN(CC)c1ccc2cc(C(=O)Nc3nc(C45CC6CC(CC(C6)C4)C5)cs3)c(=O)oc2c1

>  <Classification>
TRUE

$$$$
>  <Compound>
Cc1cc(N(CCC#N)CCC#N)ccc1N=Nc1cccc(Cl)c1

>  <Classification>
TRUE

$$$$
>  <Compound>
O=C(Nc1ccc(Cl)cc1)c1cc(S(=O)(=O)Nc2nnc(-c3ccccc3)c(-c3ccccc3)n2)c(SCc2ccccc2)cc1Cl

>  <Classification>
TRUE

$$$$
>  <Compound>
Cn1nc2ccc3nccc(N(CCO)CCO)c3c2n1

>  <Classification>
TRUE

$$$$
>  <Compound>
CC(C)(CC#N)c1cc(CC(C)(C)c2cc(CC(C)(C)c3cc(C(C)(C)C4(C)OCCO4)no3)no2)no1

>  <Classification>
TRUE

$$$$
>  <Compound>
COc1ccc(N2C(=O)[C@@H]3[C@H](C2=O)c2[nH]c4ccccc4c2C2CCC(C(C)(C)C)C[C@@H]23)cc1 (some centres undefined)

>  <Classification>
TRUE

$$$$

----------
Reported TGI values are given for each entry in this list.
system: SW-620 colon; assay: NCI tumour cell line growth inhibition, 48 h

>  <Molecule>
Cc1nc2c(n1CCN(C)C)C(=O)c1ccccc1C2=O

>  <TGI>
29 µM

$$$$
>  <Molecule>
Nc1ccc2ccc(NS(=O)(=O)N3CCCCC3)cc2c1

>  <TGI>
> 100 µM

$$$$
>  <Molecule>
CC(C)(C)[Si](C)(C)OCC1OC(n2cnc3c(N)ncnc32)CC1OS(C)(=O)=O (stereo not given)

>  <TGI>
> 100 µM

$$$$
>  <Molecule>
C#C[C@H](CCCC)OC(=O)N[C@H](C)c1ccccc1

>  <TGI>
> 100 µM

$$$$
>  <Molecule>
C/C(=N\Nc1nc2ccccc2o1)c1cc(C)ncn1

>  <TGI>
> 100 µM

$$$$
>  <Molecule>
CCOC(=O)c1sc2nc(-c3ccccc3)nn2c1CBr

>  <TGI>
3.88 µM

$$$$
>  <Molecule>
COc1ccc2c(c1)cn1c3ccc(O)cc3[nH]c(=O)c21

>  <TGI>
2.55 µM

$$$$
>  <Molecule>
Cc1ccc(CC(Cc2ccc(C)cc2C(=O)O)C(=O)O)cc1 (stereo not given)

>  <TGI>
> 100 µM

$$$$
>  <Molecule>
NC(Cc1ccnnc1)C(=O)O (stereo not given)

>  <TGI>
> 100 µM

$$$$
>  <Molecule>
NC(=S)N1N=C(c2ccccc2O)CC1c1ccccc1 (stereo not given)

>  <TGI>
> 100 µM

$$$$
>  <Molecule>
O=C(Cn1c2ccc(Br)cc2c2nc3ccccc3nc21)N/N=C/c1ccccc1

>  <TGI>
> 100 µM

$$$$
>  <Molecule>
Cc1cc(=O)oc2c(C)c3oc(CBr)c(Br)c3cc12

>  <TGI>
52.1 µM

$$$$
>  <Molecule>
COC(=O)C1=C(O)CCCC(CCC(C)=O)=C1

>  <TGI>
> 100 µM

$$$$
>  <Molecule>
C1=C(c2ccccc2)SC=C(c2ccccc2)S1

>  <TGI>
> 100 µM

$$$$
>  <Molecule>
COC1CC(CC2CCC(C)C(C(C)C(=O)O)O2)OC2(OC(C)(C3CCC(C)(C4OC(C5OC(O)(CO)C(C)CC5C)CC4C)O3)CC2C)C1C (stereo not given)

>  <TGI>
17.9 µM

$$$$
>  <Molecule>
CC1(C)CCCOc2cccc(c2)OCCCC(C)(C)C1=O

>  <TGI>
> 100 µM

$$$$
>  <Molecule>
CCC1(N=[N+]=[N-])C(=O)c2ccccc2N(c2ccccc2)C1=O (stereo not given)

>  <TGI>
> 100 µM

$$$$
>  <Molecule>
O=S(=O)(O)c1cc(N=[N+]([O-])c2cc(S(=O)(=O)O)c3ccccc3c2)cc2ccccc12

>  <TGI>
> 100 µM

$$$$
>  <Molecule>
O=[N+]([O-])C(=C(Nc1ccccc1)Nc1ccccc1)/C(Cl)=C(\Cl)Br

>  <TGI>
18.8 µM

$$$$
>  <Molecule>
CC1CCP(=O)(c2ccccc2)CC1 (stereo not given)

>  <TGI>
> 100 µM

$$$$
>  <Molecule>
COc1cc2ccc1OCc1cccc(n1)COc1ccc(cc1OC)C=Nc1ccc(cc1)-c1ccc(cc1)N=C2

>  <TGI>
> 100 µM

$$$$
>  <Molecule>
CCOC(=O)C1=COC(C)(c2ccccc2)CC1=O (stereo not given)

>  <TGI>
> 100 µM

$$$$
>  <Molecule>
Nc1cc(-c2ccc(Cl)cc2)nn1-c1nc2ccccc2nc1-c1ccccc1

>  <TGI>
> 100 µM

$$$$
>  <Molecule>
COC(=O)NC(=O)c1cn(CCCOC(=O)CCCCCCCCC(=O)OCCCn2cc(C(=O)NC(=O)OC)c(=O)[nH]c2=O)c(=O)[nH]c1=O

>  <TGI>
> 100 µM

$$$$
>  <Molecule>
Cc1ccc(C2C3=C(N=c4s/c(=C/c5ccc(Br)cc5)c(=O)n42)c2ccc4ccccc4c2OCC3)cc1 (stereo not given)

>  <TGI>
> 100 µM

$$$$
>  <Molecule>
CCCC(=O)Oc1ccc2c(C)cc(=O)oc2c1OC(=O)CCC

>  <TGI>
> 100 µM

$$$$
>  <Molecule>
CN(/N=C\c1ccc2ccccc2c1)C1=NCCN1

>  <TGI>
41.7 µM

$$$$
>  <Molecule>
CN1CCN(c2ccc(NC3=C(Cl)C(=O)c4ncccc4C3=O)cc2C#N)CC1

>  <TGI>
3.62 µM

$$$$
>  <Molecule>
O=S(=O)(O)/C(=C\c1ccccc1)c1ccccc1 (tested in a mixture with another compound)

>  <TGI>
> 100 µM

$$$$
>  <Molecule>
CC1(C)CC(=O)c2c(nc(SSc3nc4c(c(-c5ccc(Br)cc5)c3C#N)C(=O)CC(C)(C)C4)c(C#N)c2-c2ccc(Br)cc2)C1

>  <TGI>
> 10 µM

$$$$
>  <Molecule>
O=C(O)Cn1c(=O)[nH]c(=O)c2[nH]cnc21

>  <TGI>
> 100 µM

$$$$
>  <Molecule>
O=C(O)c1cc(Cc2ccc(O)c(C(=O)O)c2)ccc1O (tested in a mixture with another compound)

>  <TGI>
23.5 µM

$$$$
>  <Molecule>
CCCCCCCCCCCC(=O)c1c(O)cccc1O

>  <TGI>
33.5 µM

$$$$
>  <Molecule>
COc1cc2c(c(OC)c1OC)C(=O)[C@H](Br)[C@H]2NC(=O)NCCCl

>  <TGI>
> 100 µM

$$$$
>  <Molecule>
C/C1=C\C/C=C(\C)[C@H]2CC(CC/C(C)=C/CC1)[C@](C)(C=O)O2

>  <TGI>
> 100 µM

$$$$
>  <Molecule>
Nc1ccc(Oc2ccc(C34CC5CC(C3)CC(c3ccc(Oc6ccc(N)cc6)cc3)(C5)C4)cc2)cc1

>  <TGI>
> 100 µM

$$$$
>  <Molecule>
C[C@H](CCC(=O)O)[C@H]1CC[C@H]2[C@@H]3[C@H](O)C[C@@H]4C[C@H](O)CC[C@]4(C)[C@H]3CC[C@]12C

>  <TGI>
> 100 µM

$$$$
>  <Molecule>
COC(=O)c1ccccc1C1CN=NC12Cc1cc(C)c(C)cc1C2=O (stereo not given)

>  <TGI>
> 100 µM

$$$$
>  <Molecule>
CC(=O)OC1CC[C@@]2(C)C(C1)CC(OC(C)=O)[C@@H]1C2CC(OC(C)=O)[C@]2(C)C(C(C)CC=C(c3ccc(Cl)cc3)c3ccc(Cl)cc3)CCC12 (stereo not given in full)

>  <TGI>
> 100 µM

$$$$
>  <Molecule>
BrC1=CC=C2NCCCCCCN=C3C=CC(Br)=CC=C3NCCCCCCN=C2C=C1

>  <TGI>
> 25.5 µM

$$$$
